# assayed.target: CDK12/CycK (Homo sapiens, UniProt Q9NYV4)
# Sequence (Q9NYV4 with tags, fused parts or gaps, one chain of several): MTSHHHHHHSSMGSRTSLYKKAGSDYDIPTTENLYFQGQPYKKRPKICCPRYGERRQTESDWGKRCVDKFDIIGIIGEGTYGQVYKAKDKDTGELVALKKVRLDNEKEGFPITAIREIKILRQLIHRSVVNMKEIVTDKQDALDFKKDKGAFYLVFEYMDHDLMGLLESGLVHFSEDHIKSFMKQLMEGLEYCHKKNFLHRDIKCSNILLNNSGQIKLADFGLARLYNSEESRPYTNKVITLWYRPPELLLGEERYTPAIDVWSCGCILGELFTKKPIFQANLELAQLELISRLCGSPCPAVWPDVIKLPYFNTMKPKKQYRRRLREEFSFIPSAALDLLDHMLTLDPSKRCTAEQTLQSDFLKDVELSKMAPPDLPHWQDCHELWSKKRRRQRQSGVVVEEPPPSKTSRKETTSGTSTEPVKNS
# procedure.details: CDK12/CycK high ATP kinase assay (TR-FRET, 2 mM ATP)
# stated.conditions: 2 mM ATP (high ATP); median; read-out: CDK12/CyclinK, 2 mM ATP (high ATP), IC50-[mol/l] (median)
pIC50: −log10 of the molar value.
property: pIC50

O=C(O)C(F)(F)F.c1ccc2[nH]c(CNc3nc(N4CCOCC4)nc4c(-c5ccnnc5)cnn34)nc2c1 [Example 438] = < 5.10
Clc1cc2nc(CNc3nc(N4CCOCC4)nc4c(-c5ccnnc5)cnn34)[nH]c2cc1Cl.O=C(O)C(F)(F)F [Example 440] = < 4.70
Brc1cnn2c(NCc3nc4ccccc4[nH]3)nc(OC3CCOCC3)nc12 [Example 405] = < 4.70
Fc1ccccc1-c1nnc(CNc2nc(N3CCOCC3)nc3c(Br)cnn23)[nH]1 [Example 75] = < 5.42
CC(C)c1cnn2c(NCc3nc4ccccc4[nH]3)nc(Nc3ccccc3)nc12 [Example 13] = < 4.70

###

# assayed.target: CDK12 (nuclear staining in CAL-120 cells) (Homo sapiens, UniProt Q9NYV4)
# Construct: endogenous in cells; host or cells: CAL-120 human breast cancer cells (DSMZ ACC 459)
# Sequence (Q9NYV4 whole entry): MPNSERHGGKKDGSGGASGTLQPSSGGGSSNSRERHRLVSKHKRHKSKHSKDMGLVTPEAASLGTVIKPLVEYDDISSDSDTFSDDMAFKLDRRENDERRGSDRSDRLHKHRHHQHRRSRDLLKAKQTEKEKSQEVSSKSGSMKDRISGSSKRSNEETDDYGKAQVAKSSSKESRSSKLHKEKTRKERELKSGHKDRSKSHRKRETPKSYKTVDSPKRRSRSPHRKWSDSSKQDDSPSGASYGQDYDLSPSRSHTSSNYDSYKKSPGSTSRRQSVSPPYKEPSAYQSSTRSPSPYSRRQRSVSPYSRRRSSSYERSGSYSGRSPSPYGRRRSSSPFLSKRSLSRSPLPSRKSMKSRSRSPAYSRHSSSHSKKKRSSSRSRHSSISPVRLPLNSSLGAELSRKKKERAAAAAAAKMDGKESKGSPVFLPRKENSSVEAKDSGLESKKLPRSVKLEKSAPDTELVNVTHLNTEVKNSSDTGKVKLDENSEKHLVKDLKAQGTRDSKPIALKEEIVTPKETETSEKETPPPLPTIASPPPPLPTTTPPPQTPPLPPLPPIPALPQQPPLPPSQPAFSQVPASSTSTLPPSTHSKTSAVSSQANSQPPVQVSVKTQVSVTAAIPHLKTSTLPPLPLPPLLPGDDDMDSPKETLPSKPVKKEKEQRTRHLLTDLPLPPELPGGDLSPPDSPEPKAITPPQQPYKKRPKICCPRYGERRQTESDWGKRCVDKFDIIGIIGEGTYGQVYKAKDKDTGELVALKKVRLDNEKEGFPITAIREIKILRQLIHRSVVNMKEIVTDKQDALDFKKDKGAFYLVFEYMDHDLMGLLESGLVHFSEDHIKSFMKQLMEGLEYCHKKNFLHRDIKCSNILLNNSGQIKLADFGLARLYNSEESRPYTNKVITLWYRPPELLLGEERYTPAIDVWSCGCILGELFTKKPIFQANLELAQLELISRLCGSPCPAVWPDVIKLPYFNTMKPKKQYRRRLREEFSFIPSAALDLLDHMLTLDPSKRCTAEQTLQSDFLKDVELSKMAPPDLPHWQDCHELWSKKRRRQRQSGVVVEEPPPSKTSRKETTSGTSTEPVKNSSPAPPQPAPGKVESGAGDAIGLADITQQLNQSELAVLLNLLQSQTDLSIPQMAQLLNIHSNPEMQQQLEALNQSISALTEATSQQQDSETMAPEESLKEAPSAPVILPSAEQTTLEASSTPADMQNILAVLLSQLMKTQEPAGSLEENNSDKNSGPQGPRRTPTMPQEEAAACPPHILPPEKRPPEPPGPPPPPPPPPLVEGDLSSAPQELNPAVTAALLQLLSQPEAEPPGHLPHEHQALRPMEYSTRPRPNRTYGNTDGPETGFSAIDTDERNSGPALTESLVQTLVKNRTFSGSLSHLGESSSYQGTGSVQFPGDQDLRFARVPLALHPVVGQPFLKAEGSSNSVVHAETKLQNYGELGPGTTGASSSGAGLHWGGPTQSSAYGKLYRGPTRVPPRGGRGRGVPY
# Sequence (O75909 whole entry partner): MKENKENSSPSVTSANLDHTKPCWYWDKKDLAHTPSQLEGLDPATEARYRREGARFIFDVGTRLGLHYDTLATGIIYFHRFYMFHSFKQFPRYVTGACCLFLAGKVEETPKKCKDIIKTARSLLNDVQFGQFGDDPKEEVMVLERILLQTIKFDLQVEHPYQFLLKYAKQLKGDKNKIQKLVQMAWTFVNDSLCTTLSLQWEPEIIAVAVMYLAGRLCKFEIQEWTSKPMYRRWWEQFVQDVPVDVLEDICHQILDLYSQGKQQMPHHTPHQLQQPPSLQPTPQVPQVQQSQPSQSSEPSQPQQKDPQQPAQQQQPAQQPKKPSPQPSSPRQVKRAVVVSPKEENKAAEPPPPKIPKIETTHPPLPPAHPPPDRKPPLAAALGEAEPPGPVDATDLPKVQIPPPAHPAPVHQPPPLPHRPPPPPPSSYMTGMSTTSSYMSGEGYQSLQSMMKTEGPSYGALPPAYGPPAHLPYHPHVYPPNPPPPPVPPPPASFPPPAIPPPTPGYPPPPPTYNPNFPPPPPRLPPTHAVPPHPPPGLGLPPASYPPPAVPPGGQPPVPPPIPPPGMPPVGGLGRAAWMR
# procedure.details: CDK12 nuclear protein level: immunofluorescence/high content analysis (CAL-120)
# Assay type: cell-based
# stated.conditions: CAL-120 cells, 24 h, immunofluorescence; 50% reduction of nuclear CDK12 staining intensity; median; read-out: CDK12 degradation IF, DC50- [mol/l] (median)
property: DC50 (nM)

FC(F)(F)CN1CCN(c2nc(NCc3nc4ccccc4[nH]3)n3ncc(Br)c3n2)CC1 [Example 139] = 110
O[C@H]1C[C@@H](Nc2nc(NCc3nc4ccccc4[nH]3)n3ncc(Br)c3n2)C1 [Example 234] = 10.3
C[C@@H]1CN(c2nc(NCc3nc4ccccc4[nH]3)n3ncc(C4CC4)c3n2)C[C@H](C)N1 [Example 248] = 0.946
Clc1cccc(-c2cnc(CNc3nc(N4CCOCC4)nc4c(Br)cnn34)[nH]2)c1 [Example 81] = 5.31
COc1ccc2[nH]c(CNc3nc(N4CCOCC4)nc4c(Br)cnn34)nc2c1 [Example 160] = 1.4
CN1CCN(c2nc(NCc3nc4cc(F)c(Cl)cc4[nH]3)n3ncc(Br)c3n2)CC1 [Example 337] = 1.85

###

# assayed.target: CDK9/CycT1 (Homo sapiens, UniProt P50750)
# Construct: Recombinant full-length His-tagged human CDK9 and CycT1; purchased Life Technologies PV4131; host or cells: insect cells
# Sequence (P50750 whole entry): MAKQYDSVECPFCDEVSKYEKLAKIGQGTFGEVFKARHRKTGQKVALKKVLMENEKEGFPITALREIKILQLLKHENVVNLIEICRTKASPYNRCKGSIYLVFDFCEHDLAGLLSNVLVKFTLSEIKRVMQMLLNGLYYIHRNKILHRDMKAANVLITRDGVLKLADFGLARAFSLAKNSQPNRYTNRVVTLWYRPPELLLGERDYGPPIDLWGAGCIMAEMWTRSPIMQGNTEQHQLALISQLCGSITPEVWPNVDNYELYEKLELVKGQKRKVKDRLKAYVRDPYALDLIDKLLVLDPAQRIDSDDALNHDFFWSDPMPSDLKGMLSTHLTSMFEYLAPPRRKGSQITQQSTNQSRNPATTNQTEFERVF
# Sequence (O60563 whole entry partner): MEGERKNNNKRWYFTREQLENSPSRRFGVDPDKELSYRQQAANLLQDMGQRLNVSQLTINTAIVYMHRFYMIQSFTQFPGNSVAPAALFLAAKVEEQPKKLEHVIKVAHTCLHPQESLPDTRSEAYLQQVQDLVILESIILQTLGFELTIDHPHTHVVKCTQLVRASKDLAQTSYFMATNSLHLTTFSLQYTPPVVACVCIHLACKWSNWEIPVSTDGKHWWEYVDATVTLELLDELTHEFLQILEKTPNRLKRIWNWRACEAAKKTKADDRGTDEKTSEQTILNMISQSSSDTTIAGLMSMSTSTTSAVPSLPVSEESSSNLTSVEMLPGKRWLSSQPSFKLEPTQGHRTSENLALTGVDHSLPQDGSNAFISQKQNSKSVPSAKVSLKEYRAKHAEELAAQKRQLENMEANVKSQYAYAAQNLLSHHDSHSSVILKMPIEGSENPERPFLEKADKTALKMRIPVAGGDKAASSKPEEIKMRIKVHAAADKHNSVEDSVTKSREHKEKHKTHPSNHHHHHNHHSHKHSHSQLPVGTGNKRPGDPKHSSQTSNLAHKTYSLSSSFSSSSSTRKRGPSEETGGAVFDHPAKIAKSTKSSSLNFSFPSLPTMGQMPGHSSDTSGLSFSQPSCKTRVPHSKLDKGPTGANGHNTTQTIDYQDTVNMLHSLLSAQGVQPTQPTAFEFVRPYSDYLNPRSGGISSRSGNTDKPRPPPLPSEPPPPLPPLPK
# procedure.details: CDK9/CycT1 high ATP kinase assay (TR-FRET, 2 mM ATP)
# Assay type: biochemical
# stated.conditions: 2 mM ATP (high ATP); median; read-out: CDK9/CyclinT1, 2 mM ATP (high ATP), IC50 (median)
property: IC50

C[C@@H]1CN(c2nc(NCc3nc4cc(F)ccc4[nH]3)n3ncc(C4CC4)c3n2)C[C@H](C)N1 [Example 175] = > 20 µM
Brc1cnn2c(NCc3nc4ccccc4[nH]3)nc(N3CCN4CCC3CC4)nc12 [Example 349] = > 20 µM
FC(F)n1cc(-c2cnn3c(NCc4nc5ccccc5[nH]4)nc(N4CCOCC4)nc23)cn1 [Example 421] = > 20 µM
Brc1cnn2c(NCc3nc4ccccc4[nH]3)nc(N3C[C@@H]4C[C@H]3CO4)nc12 [Example 103] = > 20 µM
CN1CCN(c2nc(NCc3nc4c(F)c(Cl)ccc4[nH]3)n3ncc(C4CC4)c3n2)CC1 [Example 371] = > 20 µM
CC(C)c1cnn2c(NCc3nc4ccccc4[nH]3)nc(N(C)C)nc12 [Example 3] = > 20 µM
CCc1cnn2c(NCc3nc4c(OC)cccc4[nH]3)nc(N3CCOCC3)nc12 [Example 433] = > 20 µM
Fc1cc2nc(CNc3nc(N4CCOCC4)nc4c(C5CC5)cnn34)[nH]c2cc1Cl [Example 307] = > 20 µM
Fc1ccccc1-c1cnn2c(NCc3nc4ccccc4[nH]3)nc(N3CCOCC3)nc12 [Example 95] = > 20 µM
CN(CC(C)(C)O)c1nc(NCc2nc3c(F)c(Cl)ccc3[nH]2)n2ncc(Br)c2n1 [Example 374] = 1.64 µM
Cc1ccc2[nH]c(CNc3nc(N4C[C@@H]5CCCN[C@@H]5C4)nc4c(C5CC5)cnn34)nc2c1 [Example 195] = > 20 µM
Brc1cnn2c(NCc3nnc(-c4ccccc4)[nH]3)nc(N3CCCCC3)nc12 [Example 49] = 2.61 µM
Brc1cnn2c(NCc3nnc(-c4ccccc4)[nH]3)nc(N3C[C@H]4C[C@@H]3CO4)nc12 [Example 118] = 3.63 µM
C[C@@H]1COCCN1c1nc(NCc2nc3ccccc3[nH]2)n2ncc(Br)c2n1 [Example 56] = > 20 µM
CN(CC1CC1)c1nc(NCc2nc3ccccc3[nH]2)n2ncc(Br)c2n1 [Example 287] = > 20 µM

Reference for the values: patent US20230117034A1
